- system.name: recombinant human Meningioma Expressed Antigen 5 (MGEA5), also referred to as O-GlcNAcase (OGA) (Homo sapiens, UniProt O60502)
- Construct: Full length OGA enzyme was purchased at OriGene (cat #TP322411); purchased OriGene TP322411
- assay.name: OGA biochemical assay (inhibition of FM-GlcNAc hydrolysis, fluorescence)
- settings: read-out: Enzymatic Emax (%)
reported.endpoint: Emax (%)

compound: Cc1cc(C(F)(F)F)cc(C)c1Nc1nccc2c1ncn2CC(=O)N(C)C [Compound 61]
reported.endpoint: Emax
value.units: %
value.measured: 98

compound: Cc1cc(C(F)(F)F)cc(C)c1Nc1nccc2c1ncn2CC(=O)N(C)CC(F)(F)F [Compound 77]
reported.endpoint: Emax
value.units: %
value.measured: 103

compound: COc1cccc(-n2nc(C)c(Nc3nccc4c3ncn4CC(=O)N(C)C)c2C)c1 [Compound 36]
reported.endpoint: Emax
value.units: %
value.measured: 101

compound: Cc1cc(F)cc(F)c1Nc1nccc2c1ncn2CC(C)(F)F [Compound 3]
reported.endpoint: Emax
value.units: %
value.measured: 101

compound: Cc1cc(C(F)(F)F)cc(C)c1Nc1ncc(C)c2c1ncn2CC(=O)N(C)C [Compound 6]
reported.endpoint: Emax
value.units: %
value.measured: 99

compound: Cc1cc(C)c(Nc2nccc3c2ncn3CC(=O)N(C)C)c(C)c1 [Compound 19]
reported.endpoint: Emax
value.units: %
value.measured: 98

compound: Cc1cc(C(F)(F)F)cc(Cl)c1Nc1nccc2c1ncn2CC(=O)N(C)C [Compound 15]
reported.endpoint: Emax
value.units: %
value.measured: 98

compound: [2H]C([2H])([2H])N(C(=O)Cn1cnc2c(Nc3c(C)cc(C(F)(F)F)cc3C)nccc21)C([2H])([2H])[2H] [Compound 53]
reported.endpoint: Emax
value.units: %
value.measured: 103

compound: COc1ccc(-n2nc(C)c(Nc3nccc4c3ncn4CC(=O)N(C)C)c2C)cc1 [Compound 44]
reported.endpoint: Emax
value.units: %
value.measured: 99

compound: Cc1c(C(F)(F)F)nn(C)c1Nc1nccc2c1ncn2CC(=O)N(C)C [Compound 39]
reported.endpoint: Emax
value.units: %
value.measured: 94

compound: COc1cc(C)c(Nc2nccc3c2ncn3CC(=O)N(C)C)c(C)c1 [Compound 8]
reported.endpoint: Emax
value.units: %
value.measured: 97

compound: Cc1cc(C(F)(F)F)cc(C)c1Nc1nccc2c1ncn2C(C)C(=O)N(C)C (stereo not drawn) [Compound 72]
reported.endpoint: Emax
value.units: %
value.measured: 92

compound: COCCn1cnc2c(Nc3c(C)cc(C(F)(F)F)cc3C)nccc21 [Compound 74]
reported.endpoint: Emax
value.units: %
value.measured: 83

compound: Cc1nccc(C(F)F)c1Nc1nccc2c1ncn2CC(=O)N(C)C [Compound 27]
reported.endpoint: Emax
value.units: %
value.measured: 89

compound: Cc1ccc(-n2nc(C)c(Nc3nccc4c3ncn4CC(=O)N(C)C)c2C)cc1 [Compound 45]
reported.endpoint: Emax
value.units: %
value.measured: 94

---

// melting point lookup, one value per entry
reported.endpoint: melting point

compound: Cc1cc(C(F)(F)F)cc(C)c1Nc1nccc2c1ncn2CC(=O)N(C)CC(F)(F)F [Compound 77]
value.measured: 228.3 °C
--
compound: Cc1ccc(-n2nc(C)c(Nc3nccc4c3ncn4CC(=O)N(C)C)c2C)cc1 [Compound 45]
value.measured: 214.9 °C
--
compound: CN(C)C(=O)Cn1cnc2c(Nc3ccc(F)cc3C(F)(F)F)nccc21 [Compound 29]
value.measured: 246.7 °C
--
compound: Cc1cc(C(F)(F)F)cc(C)c1Nc1nccc2c1ncn2CC(=O)N(C)C1CC1 [Compound 52]
value.measured: 199.8 °C

---

- system.name: recombinant human Meningioma Expressed Antigen 5 (MGEA5), also referred to as O-GlcNAcase (OGA) (Homo sapiens)
- Construct: Full length OGA enzyme was purchased at OriGene (cat #TP322411); purchased OriGene TP322411
- Sequence (O60502 1-916): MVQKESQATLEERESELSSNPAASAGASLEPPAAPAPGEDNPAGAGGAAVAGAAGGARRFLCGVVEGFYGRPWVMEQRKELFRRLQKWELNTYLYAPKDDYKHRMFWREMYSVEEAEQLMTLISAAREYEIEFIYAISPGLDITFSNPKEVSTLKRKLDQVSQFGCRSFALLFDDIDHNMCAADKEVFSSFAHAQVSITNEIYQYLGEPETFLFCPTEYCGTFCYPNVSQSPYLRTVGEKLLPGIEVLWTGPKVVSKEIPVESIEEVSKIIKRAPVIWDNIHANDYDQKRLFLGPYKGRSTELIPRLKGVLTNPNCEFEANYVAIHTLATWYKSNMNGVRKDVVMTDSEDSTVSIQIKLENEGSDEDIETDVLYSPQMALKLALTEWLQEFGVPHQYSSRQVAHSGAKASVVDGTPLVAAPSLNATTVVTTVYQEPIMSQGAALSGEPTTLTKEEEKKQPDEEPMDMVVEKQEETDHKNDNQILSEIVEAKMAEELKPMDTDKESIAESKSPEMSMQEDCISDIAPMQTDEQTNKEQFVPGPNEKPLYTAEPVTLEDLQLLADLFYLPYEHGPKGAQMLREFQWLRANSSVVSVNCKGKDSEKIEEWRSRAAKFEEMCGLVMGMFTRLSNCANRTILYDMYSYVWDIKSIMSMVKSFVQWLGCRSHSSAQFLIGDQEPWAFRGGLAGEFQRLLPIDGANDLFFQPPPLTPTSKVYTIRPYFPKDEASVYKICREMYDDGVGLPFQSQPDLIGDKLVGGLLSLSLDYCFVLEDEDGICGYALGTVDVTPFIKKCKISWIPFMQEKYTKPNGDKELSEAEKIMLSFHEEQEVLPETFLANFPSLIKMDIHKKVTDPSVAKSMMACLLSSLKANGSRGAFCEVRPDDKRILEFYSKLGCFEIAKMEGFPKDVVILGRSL
- assay.name: OGA biochemical assay (inhibition of FM-GlcNAc hydrolysis, fluorescence)
- settings: Enzymatic hOGA; pIC50, Table 5; full length OGA 2 nM, FM-GlcNAc 100 uM, 6 h at room temperature
pIC50: −log10 of the molar value.

compound.smiles: Cc1c(-c2cccc(F)c2)nn(C)c1Nc1nccc2c1ncn2CC(=O)N(C)C
pIC50: 6.98

compound.smiles: Cc1cc(C(F)(F)F)cc(C)c1Nc1nccc2c1ncn2CC(=O)N(C)C
pIC50: 8.03

compound.smiles: Cc1cc(C(F)(F)F)cc(C)c1Nc1ncc(F)c2c1ncn2CC(=O)N(C)C
pIC50: 6.75

compound.smiles: Cc1cc(C(F)(F)F)cc(Cl)c1Nc1nccc2c1ncn2CC(C)(F)F
pIC50: 8.22

compound.smiles: CCCCn1ncc2c(Nc3c(C)cncc3C)nccc21
pIC50: 5.12

---

Consider the following compounds and their measured Emax readings.
- system.name: hOGA (Homo sapiens, UniProt O60502)
- Construct: endogenous in cells; host or cells: HEK293 cells inducible for P301L mutant human Tau (isoform 2N4R)
- Sequence (O60502 1-916): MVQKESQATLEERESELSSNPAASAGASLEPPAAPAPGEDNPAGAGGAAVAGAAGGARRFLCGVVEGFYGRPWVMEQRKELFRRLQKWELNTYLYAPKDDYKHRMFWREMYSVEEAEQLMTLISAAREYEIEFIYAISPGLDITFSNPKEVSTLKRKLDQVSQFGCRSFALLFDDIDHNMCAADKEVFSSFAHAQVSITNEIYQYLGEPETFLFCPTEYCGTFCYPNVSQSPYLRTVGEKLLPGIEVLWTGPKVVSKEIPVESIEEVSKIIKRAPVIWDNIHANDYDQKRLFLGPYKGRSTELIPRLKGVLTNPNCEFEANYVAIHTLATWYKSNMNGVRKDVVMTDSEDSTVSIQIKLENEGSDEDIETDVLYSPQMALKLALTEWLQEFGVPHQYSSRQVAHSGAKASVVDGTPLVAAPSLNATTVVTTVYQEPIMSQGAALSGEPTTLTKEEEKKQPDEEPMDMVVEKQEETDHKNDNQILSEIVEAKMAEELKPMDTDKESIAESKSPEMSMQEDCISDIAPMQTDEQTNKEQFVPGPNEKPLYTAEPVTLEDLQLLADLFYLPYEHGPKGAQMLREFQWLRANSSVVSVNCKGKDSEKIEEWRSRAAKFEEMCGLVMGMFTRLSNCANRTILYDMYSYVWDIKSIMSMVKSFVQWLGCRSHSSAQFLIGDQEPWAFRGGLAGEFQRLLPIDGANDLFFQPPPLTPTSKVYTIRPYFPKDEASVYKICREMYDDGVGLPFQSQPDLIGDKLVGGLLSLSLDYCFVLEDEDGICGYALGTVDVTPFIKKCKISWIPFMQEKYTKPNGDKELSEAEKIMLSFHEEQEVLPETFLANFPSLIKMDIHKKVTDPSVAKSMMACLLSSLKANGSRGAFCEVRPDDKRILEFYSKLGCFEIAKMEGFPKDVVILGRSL
- assay.name: OGA cellular assay (ICC detection of O-GlcNAcylated proteins in HEK293 cells inducible for P301L mutant human Tau)
- Format: cell-based
- Set-up: dose or concentration left out as unconfirmed
- settings: HEK293, read-out: Cellular Emax (%)

compound: Cc1cc(C(F)(F)F)cc(C(C)C)c1Nc1nccc2c1ncn2CC(=O)N(C)C [Compound 12]
Emax, %: 88
--
compound: COCCn1cnc2c(Nc3c(C)cc(C(F)(F)F)cc3C)nccc21 [Compound 74]
Emax, %: 6
--
compound: COc1cccc(-n2nc(C)c(Nc3nccc4c3ncn4CC(=O)N(C)C)c2C)c1 [Compound 36]
Emax, %: 55
--
compound: Cc1cc(C(F)(F)F)cc(C)c1Nc1ncc(C)c2c1ncn2CC(=O)N(C)C [Compound 6]
Emax, %: 60
--
compound: CC(C)c1cc(F)cc(Cl)c1Nc1nccc2c1ncn2CC(=O)N(C)C [Compound 47]
Emax, %: 110
--
compound: Cc1c(C(F)(F)F)nn(C)c1Nc1nccc2c1ncn2CC(=O)N(C)C [Compound 39]
Emax, %: 12
--
compound: Cc1cc(C(F)(F)F)cc(C)c1Nc1nccc2c1ncn2CC(N)=O [Compound 5]
Emax, %: 67
--
compound: Cc1nn(-c2ccccc2)c(C)c1Nc1nccc2c1ncn2CC(=O)N(C)C [Compound 41]
Emax, %: 44
--
compound: Cc1ccc(-n2nc(C)c(Nc3nccc4c3ncn4CC(=O)N(C)C)c2C)cc1C [Compound 42]
Emax, %: 70
--
compound: Cc1n[nH]c(C)c1Nc1nccc2c1ncn2CC(=O)N(C)C [Compound 38]
Emax, %: 6
--
compound: Cc1cc(C)c(Nc2nccc3c2ncn3CC(=O)N(C)C)c(C)c1 [Compound 19]
Emax, %: 62
--
compound: Cc1cc(C)cc(-n2nc(C)c(Nc3nccc4c3ncn4CC(=O)N(C)C)c2C)c1 [Compound 43]
Emax, %: 65
--
compound: CN(C)C(=O)Cn1cnc2c(Nc3c(Cl)cc(C(F)(F)F)cc3Cl)nccc21 [Compound 17]
Emax, %: 77
--
compound: Cc1cc(C(F)(F)F)cc(C)c1Nc1nccc2c1ncn2-c1ccc(F)cn1 [Compound 60]
Emax, %: 44
--
compound: Cc1cc(C(F)(F)F)cc(C)c1Nc1nccc2c1ncn2CC(=O)N1CCC1 [Compound 50]
Emax, %: 48
--
compound: Cc1nn(-c2cccc(F)c2)c(C)c1Nc1nccc2c1ncn2CC(=O)N(C)C [Compound 34]
Emax, %: 54
--
compound: Cc1nn(-c2ccc(F)cn2)c(C)c1Nc1nccc2c1ncn2CC(=O)N(C)C [Compound 32]
Emax, %: 34
